# Test system: Rattus norvegicus
# Experiment: AUC in Sprague-Dawley rat at 1 mg/kg, po
# Assay type: ADME, organism-based, Plasma
# Design: dose 1 mg/kg, route oral
# Condition: in vivo
Outcome measure: AUC (ng·h/mL)
Hi! Could you send only the number? It should be in ng·h/mL, unit omitted.

Cc1ccccc1-n1nc(-c2c(-c3ccc(F)cc3)nn3c2NC[C@H](CO)C3)ccc1=O: 1217
Cc1ccccc1-n1nc(-c2c(-c3ccc(F)cc3)nn3c2NC[C@@H](O)C3)ccc1=O: 763
Cc1ccccc1-n1nc(-c2c(-c3ccc(F)cc3)nn3c2NC[C@H](O)C3)ccc1=O: 457

Turning now to a further record.
Briefly, AUC measured for Cc1ccccc1-n1nc(-c2c(-c3ccc(F)cc3)nn3c2NC[C@@H](CO)C3)ccc1=O [AS1940477] : 1518

====

Here the recorded F is given for each entry.
# Tested on: Rattus norvegicus
# Experiment: Oral bioavailability in Sprague-Dawley rat at 1 mg/kg
# Format: ADME, organism-based
# Condition: in vivo
Hi! Could you send only the number? It should be in %, unit omitted.

Cc1ccccc1-n1nc(-c2c(-c3ccc(F)cc3)nn3c2NC[C@@H](CO)C3)ccc1=O: 61.8

Briefly, F measured for `Cc1ccccc1-n1nc(-c2c(-c3ccc(F)cc3)nn3c2NC[C@H](CO)C3)ccc1=O` : 103.6

Briefly, F measured for `Cc1ccccc1-n1nc(-c2c(-c3ccc(F)cc3)nn3c2NC[C@@H](O)C3)ccc1=O` : 67.7

Briefly, F measured for `Cc1ccccc1-n1nc(-c2c(-c3ccc(F)cc3)nn3c2NC[C@H](O)C3)ccc1=O` : 81

====

# Experiment: Volume of distribution at steady state in Sprague-Dawley rat at 1 mg/kg, iv
# Type: ADME, organism-based
# Parameters: dose 1 mg/kg, route intravenous
# Condition: in vivo, read-out: Vdss
Binary call on Vd: satisfied from 1 L/kg upward, not satisfied beneath that.

Solved cases (4 shown):
Cc1ccccc1-n1nc(-c2c(-c3ccc(F)cc3)nn3c2NC[C@H](CO)C3)ccc1=O: satisfied
Cc1ccccc1-n1nc(-c2c(-c3ccc(F)cc3)nn3c2NC[C@@H](CO)C3)ccc1=O: not satisfied
Cc1ccccc1-n1nc(-c2c(-c3ccc(F)cc3)nn3c2NC[C@H](O)C3)ccc1=O: satisfied
CNc1c(-c2ccc(=O)n(-c3ccccc3C)n2)c(-c2ccc(F)cc2)nn1C: not satisfied

Turning to the following molecule.
Please tell me: is the molecule `Cc1ccccc1-n1nc(-c2c(-c3ccc(F)cc3)nn3c2NC[C@@H](O)C3)ccc1=O` at or over 1 L/kg in terms of Vd? satisfied

====

# Assayed system: Cytochrome P450 2C9 (Homo sapiens, UniProt P11712)
# Sequence (P11712 whole entry): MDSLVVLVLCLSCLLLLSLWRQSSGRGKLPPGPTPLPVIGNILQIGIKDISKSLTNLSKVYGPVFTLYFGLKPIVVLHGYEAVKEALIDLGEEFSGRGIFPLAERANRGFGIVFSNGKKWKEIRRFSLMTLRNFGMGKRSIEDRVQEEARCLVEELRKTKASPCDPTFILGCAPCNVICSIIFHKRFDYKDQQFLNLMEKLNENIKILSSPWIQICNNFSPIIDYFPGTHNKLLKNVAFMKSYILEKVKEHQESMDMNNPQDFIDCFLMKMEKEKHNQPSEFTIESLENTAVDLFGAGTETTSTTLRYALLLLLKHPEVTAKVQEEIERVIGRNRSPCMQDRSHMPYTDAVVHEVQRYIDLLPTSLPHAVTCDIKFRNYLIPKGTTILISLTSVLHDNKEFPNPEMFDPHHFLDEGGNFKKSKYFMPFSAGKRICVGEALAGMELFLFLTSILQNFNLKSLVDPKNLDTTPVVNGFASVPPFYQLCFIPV
Outcome measure: pIC50
To interpret pIC50, take it as minus log10 of a concentration measured in moles per litre.

Briefly, pIC50 measured for `Cc1ccccc1-n1nc(-c2c(-c3ccc(F)cc3)nn3c2NC[C@@H](CO)C3)ccc1=O` : 4.72

Origin of values: ChEMBL document CHEMBL2169749
